This collection of values is drawn from the supplement of paper PMC11865577.

tested on: TO-N3 (biotin conjugate); experiment: pull-down binding Z-score (relative to library population); higher = stronger binding; conditions: RNA library: Library-2
Binary classification by pull-down binding Z-score, with 0.2 as an inclusive lower bound for 1; all other cases are 0.

Sequence code: CAGACGGCUUUCUCUCCGAAUGUCUG [hsa-mir-2276]
Target or system: TO-N3 (biotin conjugate)
Class name: 0
//
Sequence code: GAACCCAGGGAGCCAGACUGCCUGGGUUC [hsa-mir-607]
Target or system: TO-N3 (biotin conjugate)
Class name: 1
//
Sequence code: GCAGAGAAGACAGUGAGCUUGCCAGUUCUGGUUUCCAACACUUCCUUUCCUGCG [hsa-mir-3911]
Target or system: TO-N3 (biotin conjugate)
Class name: 1
//
Sequence code: CCGUUUAAAAAGGCAUCUCCAAG [hsa-mir-608]
Target or system: TO-N3 (biotin conjugate)
Class name: 0
//
Sequence code: CCAUACAAUAUUUGG [hsa-mir-1302-1]
Target or system: TO-N3 (biotin conjugate)
Class name: 0
//
Sequence code: UCCACUAGCAUCUUUAUUGGAGAUGUGCCACAGCACACAGAUUGGUGGAAUUAGGAUGGUAGACAUCCUUAGGCAGAACCCAACAGAAGAGCAAGCCGUGGA
Target or system: TO-N3 (biotin conjugate)
Class name: 0
//
Sequence code: UGCCCUAGCGGCU [hsa-mir-4268]
Target or system: TO-N3 (biotin conjugate)
Class name: 0
//
Sequence code: CUCGCUGGGAGGUGUGCUAUCGUCUUCCCCGGGAG [hsa-mir-3689d-1]
Target or system: TO-N3 (biotin conjugate)
Class name: 0
//
Sequence code: CAGAGUUCCCUUCUUGUGAGCUCAG [hsa-mir-6733]
Target or system: TO-N3 (biotin conjugate)
Class name: 0
//
Sequence code: CGGCGGCGGCGGCGGCGGCGGCGGCGGCGGCGGCGGCGGCGGCGGCGG [G4_r(CGG)16]
Target or system: TO-N3 (biotin conjugate)
Class name: 1
